- System: RPMI-8226
- TEST NAME: NCI tumour cell line growth inhibition, 48 h
The source made the active and inactive calls. Rule as the data show it: active = GI50 up to about 1.1 µM and inactive = higher.
Write down one outcome, taken from 1 = active, 0 = inactive

Some entries whose results are on file:
COMPOUND	ASSAY TARGET	CAT
COC(=O)[C@@H]1c2cc3c(c(O)c2[C@@H](OC2OC(C)C(OC)C(C)(OC)C2OC)C[C@]1(C)O)C(=O)c1c(O)cc2c(c1C3=O)O[C@H]1O[C@]2(C)[C@H](O)[C@@H](N(C)C)[C@@H]1O (stereo partly drawn)	RPMI-8226	1
Nc1ccc(C(=O)Nn2c(-c3ccccc3)nc3ccccc3c2=O)cc1	RPMI-8226	0
CCc1nnc(CC)n1NCCCC(=O)O	RPMI-8226	0
CC[P+](C)(C)c1ccccc1	RPMI-8226	0
CC(=O)Nc1ccc(-c2nnc(SCC(=O)Nc3cccc(C)c3)o2)cc1	RPMI-8226	0
O=S(=O)(F)Cc1ccccc1 [PHENYLMETHYLSULFONYLFLUORIDE]	RPMI-8226	0
O=C1OC[C@@H]2Cc3c([nH]c4ccccc34)[C@@H](c3ccc(O)cc3)N12	RPMI-8226	0
Nc1ccn(C2OC(COC(=O)C34CC5CC(CC(C5)C3)C4)C(O)C2O)c(=O)n1 (stereo not drawn)	RPMI-8226	0
CC(C)CC(NC(=O)C(CCI)Cc1ccccc1)C(=O)Nc1ccccc1 (stereo not drawn)	RPMI-8226	0
CC(C)(Br)C(Br)CCC1(C2CO2)CO1 (stereo not drawn)	RPMI-8226	0

Assay result, entry "Cc1ccc(C(=O)Cn2c(C(=O)/C=C/c3cccs3)nc3ccccc32)cc1" — outcome?
0

Assay result, entry "C[C@]12CC[C@H](O[C@@H]3O[C@H](CO[C@@H]4O[C@H](CO)[C@@H](O)[C@H](O)[C@H]4O)[C@@H](O)[C@H](O)[C@H]3O)C[C@@H]1CC[C@@H]1[C@@H]2CC[C@]2(C)[C@@H](C3=CC(=O)OC3)CC[C@]12O" — outcome?
0

Assay result, entry "O=C1c2cccc(NCCCNCCO)c2C(=O)c2cccc(NCCCNCCO)c21" — outcome?
0

----------
- Tested on: OVCAR-4
- TEST NAME: NCI tumour cell line growth inhibition, 48 h
Calls of active or inactive are those of the source. Cut-off read from the data, not from the text of the source: active = GI50 up to about 1.1 µM and inactive = higher.
Write down one outcome, taken from TRUE = active, FALSE = inactive

Some entries whose results are on file:
COMPOUND	CAT
O=c1cc(NNc2ccccc2)[nH]c(=O)[nH]1	FALSE
CCc1nc(N)nc(N)c1-c1ccc(Cl)c(Cl)c1	FALSE
O=c1cc(-c2ccccc2)[nH]c2cccc(S)c12	FALSE
CCOC(=O)/C(=C\c1ccc(F)cc1)C(C)=O	FALSE
COc1cc2c(cc1O)CC[C@@H]1C2CC[C@@]2(C)C1CC[C@@H]2O (stereo not given in full)	FALSE
O=C1OC(c2ccc(O)cc2)(c2ccc(O)cc2)c2ccc(Cl)c3cccc1c23.O=C1OC(c2ccc(O)cc2)(c2ccc(O)cc2)c2cccc3c(Cl)ccc1c23	TRUE

Assay result, entry Cc1cccc(C)c1NC(=O)C(=O)C1C(=O)N(c2ccccc2)N=C1N (stereo not given) — outcome?
FALSE

Assay result, entry "O=C1c2cccnc2-c2nccc3ccnc1c23" — outcome?
FALSE

Assay result, entry "CN(CCCNC(=O)c1n[nH]c2c1ccc1ccccc12)CCCNC(=O)c1n[nH]c2c1ccc1ccccc12" — outcome?
FALSE

Assay result, entry CC1=Nc2ccccc2C12C(c1ccccc1)C(c1ccccc1)C(=O)N1c3ccccc3CC12 (stereo not given) — outcome?
FALSE

Assay result, entry "CC(C)(C)c1ccc(-n2c3nc(=O)n(-c4ccccc4CO)c(=O)c-3cc3ccccc32)cc1" — outcome?
FALSE

Assay result, entry CC1/C(=N\O)CC(c2ccccc2)N(C)C1c1ccccc1 (stereo not given) — outcome?
FALSE

Assay result, entry "CCN(CC)CCO/N=C1\CC[C@H]2[C@@H]3CC=C4C[C@@H](O)CC[C@]4(C)[C@H]3CC[C@]12C" — outcome?
FALSE

Assay result, entry "Clc1ccc(C2=CCN3CC=C(c4ccc(Cl)cc4)C23)cc1" — outcome?
FALSE

----------
Listing of entries alongside the reported GI50.
- System: K562
- TEST NAME: NCI tumour cell line growth inhibition, 48 h
Active and inactive are the calls of the source. Rule as the data show it: active = GI50 up to about 1.1 µM and inactive = higher.

Here's what some known entries look like.
In [3]: df
Out[3]:
                                   molecule             reported
0  O=C(OC(=C(c1ccccc1)c1ccccc1)N1CCCC1=S)C(c1ccccc1)c1ccccc1   3.88 µM (inactive)
1  Cc1ccc(Nc2nnc(-c3ccc4c(c3)OCO4)o2)c(C)c1  > 100 µM (inactive)
2      O=c1[nH]cc(/C=N\Nc2ccccc2)c(=O)[nH]1   3.96 µM (inactive)
3  C[C@@]12CCC(=O)C=C1CC[C@H]1C2=CC[C@]2(C)C1CC[C@@]2(C)O (stereo not given in full)   38.4 µM (inactive)

Can you look up the measured GI50 of CCC12CCCN(Cc3ccccc3)C1c1c(n(C)c3ccccc13)CC2 (stereo not given) for me?
163 µM (inactive)

----------
- Tested on: SN12C
- TEST NAME: NCI tumour cell line growth inhibition, 48 h
The source made the active and inactive calls. No stated cut-off is given here; in the data, active = GI50 up to about 1.1 µM and inactive = higher.
Listing of entries alongside the reported GI50.

Here's what some known entries look like.
                                   compound            reported
0  O=C(OC(=C(c1ccccc1)c1ccccc1)N1CCCC1=S)C(c1ccccc1)c1ccccc1  > 10 µM (inactive)
1  CC(C)(Br)C(Br)CCC1(C2CO2)CO1 (stereo unspecified)   > 5 µM (inactive)
2     O=c1[nH]c2cc(C(F)(F)F)ccc2nc1C(F)(F)F  29.7 µM (inactive)

Can you look up the measured GI50 of "Cc1ccc(-c2nnc3s/c(=C\c4ccc(N(C)C)cc4)c(=O)n23)cc1" for me?
> 100 µM (inactive)

Can you look up the measured GI50 of CCOC(=O)CCC(NC(=O)c1ccc(/N=C/c2nc3ccccc3nc2-c2ccccc2)cc1)C(=O)OCC (stereo unspecified) for me?
79.1 µM (inactive)

Can you look up the measured GI50 of "O=c1c([Se]c2coc3ccccc3c2=O)coc2ccccc12" for me?
15 µM (inactive)

----------
- Tested on: EKVX
- TEST NAME: NCI tumour cell line growth inhibition, 48 h
Activity calls are given as the source filed them. No stated cut-off is given here; in the data, active = GI50 up to about 1.1 µM and inactive = higher.
ENDPOINT NAME: GI50

Here's what some known entries look like.
                                   molecule  endpoint_name              reported
0  Cc1ccc(Nc2n[nH]c(NS(=O)(=O)c3cc(C)c(Cl)cc3S)n2)cc1           GI50   > 100 µM (inactive)
1  CC/C=C\C/C=C\C/C=C\CCCCCCCC(=O)OCC(O)CO (stereo unspecified)           GI50  > 88.7 µM (inactive)
2  CC(Br)C(=O)NC(CO)C(=O)O (stereo unspecified)           GI50   > 100 µM (inactive)
3     CC(C)(/N=N/C(C)(C)C(=O)NCCO)C(=O)NCCO           GI50   > 100 µM (inactive)
4  CO[C@H](C(=O)O[C@H]1C(=O)N2CCC3CCC1C32C)c1ccccc1 (stereo partly specified)           GI50   > 100 µM (inactive)

Can you look up the measured GI50 of "Cc1ccc([N+](=O)[O-])cc1S(=O)(=O)Nc1ccc(C(=O)/C=C/c2ccccc2)cc1" for me?
18 µM (inactive)

Can you look up the measured GI50 of "CN(COC(=O)C(C)(C)C)c1nc(N(C)COC(=O)C(C)(C)C)nc(N(C)COC(=O)C(C)(C)C)n1" for me?
> 100 µM (inactive)

----------
Listing of entries alongside the reported GI50.
- Test system: PC-3
- TEST NAME: NCI tumour cell line growth inhibition, 48 h
Calls of active or inactive are those of the source. Rule as the data show it: active = GI50 up to about 1.1 µM and inactive = higher.

Here's what some known entries look like.
>>> df
                                   compound             reported
0  CCOC(=O)c1ccc(C(=O)C(C(C)=O)C(=O)OC(C)(C)C)[nH]1 (stereo not drawn)  > 100 µM (inactive)
1  CC[C@@H]1CN(C)[C@H]2Cc3c([nH]c4ccccc34)C(=O)C[C@H]1C2C(=O)OC (stereo partly drawn)  > 100 µM (inactive)
2  CC1(C)CC(=O)C2(CC(CSc3ccccc3)C(CS(=O)(=O)c3ccccc3)C2)C(=O)C1 (stereo not drawn)   30.8 µM (inactive)
3               COc1cc(CNNC(N)=S)cc(OC)c1OC  > 100 µM (inactive)
4  Cc1ccc(Nc2n[nH]c(NS(=O)(=O)c3cc(C)c(Cl)cc3S)n2)cc1  > 100 µM (inactive)

Can you look up the measured GI50 of "CN(C(=O)Cc1cc(Cl)c(Cl)cc1NC(=O)CCCN)[C@H]1CCCC[C@@H]1N1CCCC1" for me?
40.3 µM (inactive)

Can you look up the measured GI50 of "FC1CCN(C2(c3cccs3)CCCCC2)CC1" for me?
> 100 µM (inactive)

Can you look up the measured GI50 of O=C(O)C(Br)C(Br)C(=O)O (stereo not drawn) for me?
> 100 µM (inactive)

Data provenance: ChEMBL document CHEMBL1201862
